MEASUREMENT DESCRIPTION: Toxicity liver stage against HepG2, at 10uM
Assay type: cell-based
Parameters: test concentration 10 uM, cell line HepG2-A16-CD81EGFP
CONDITIONS USED: human, HepG2-A16-CD81EGFP cells; read-out: INHIBITION
READOUT: cytotoxicity at 10 µM
Please provide the amount together with its unit, number first.

Record excerpt, results attached:
COMPOUND	cytotoxicity at 10 µM
Cc1nccn1-c1ccc(NC(=O)C2CCCN2CC2CC2)cc1 (stereo not given)	-14%
CNc1nc2cn(-c3cccc(OC)c3)c(=O)c-2c[nH]1	6.04%

For each entry beneath this line, provide reported cytotoxicity at 10 µM.
1. CCNc1nc(C)c(C(=O)N(C)Cc2nc(-c3ccncc3)no2)s1
2. Cc1nc(C)n(CC2CCCN2CCCc2ccccc2)n1 (stereo not given)
3. O=C(c1ccsc1)N1CCc2onc(CN3CCOCC3)c2C1
4. CC(=O)Nc1nc(C2CCN(C(=O)c3ccncc3)CC2)cs1
5. CCCn1ccnc1CN1CCC(Oc2cccc(F)c2)(C(=O)O)CC1
6. CSCC(=O)N(C)Cc1noc(-c2ccccc2)n1
7. COc1ccncc1NC(=O)C1(c2ccc(F)cc2)CCC1

Data returned:
1. 1.41%
2. -14.1%
3. 5.07%
4. -9.44%
5. 1%
6. -4.34%
7. 1.52%

// input: 2 compounds below; output: cytotoxicity at 10 µM for each
1. CCc1nc(CN2CCCN(Cc3nnc(C4CC4)o3)CC2)no1
2. Cc1oc(C(=O)O)cc1S(=O)(=O)Nc1c(F)cccc1-n1cccn1

Data returned:
["-9.26%", "-3.45%"]

List reported cytotoxicity at 10 µM for each of these compounds:
1. CC(Nc1ccc2c(c1)CCC2)c1nc(C2CC2)no1 (stereo not given)
2. Brc1ccc(C2(CNCc3cc[nH]c3)CCOCC2)cc1
3. O=C(CCN1CCCCC1)N1CCC(Cc2ccc(CO)cc2)C1 (stereo not given)
4. O=C(NCCCO)Nc1ccccc1

Data returned:
1. 7.92%
2. 9.17%
3. -7.33%
4. 1.52%

Below are some compounds; for each one, tell me its cytotoxicity at 10 µM.
1. CCC(NC(=O)c1cc(OC)c2c(c1)OCCO2)c1cccs1 (stereo not given)
2. CCS(=O)(=O)N1CCCCC1c1nc(C)no1 (stereo not given)
3. COc1ccc(C2SCC(=O)N2c2ncc(C)s2)cc1 (stereo not given)
4. CN(C)Cc1ccc(C(N)=O)cc1NC(=O)c1cccc(C#N)c1
5. Cc1csc(NC(=O)NCCCN2CCC(C(N)=O)CC2)n1

Data returned:
["-6.66%", "7.03%", "8.45%", "1.12%", "2.48%"]

For every item in the list below, what is its measured cytotoxicity at 10 µM?
1. O=C(Nc1cnn(CC(F)F)c1)c1cccc(-n2cnnn2)c1
2. Cc1ccc(CNC(=O)c2cc(NC(=O)C3CC3)n(C)n2)o1
3. CC(C)C[C@H](NC(=O)NC1CCS(=O)(=O)C1)C(=O)NCc1cccnc1 (stereo not given in full)
4. COc1ccc(CC(=O)N2CCN(Cc3ccco3)C[C@H]2C)cc1OC
5. CCc1cn[nH]c1C1CCN(C(=O)c2cccc(O)c2C)CC1

Data returned:
6.01%
4.82%
0.948%
1.02%
2.28%
